FYI, the data here is from ChEMBL document CHEMBL1201862.

Below is a list of entries, each paired with its recorded GI50 value.
system: K562; assay: NCI tumour cell line growth inhibition, 48 h
The source made the active and inactive calls. No stated cut-off is given here; in the data, active = GI50 up to about 1.1 µM and inactive = higher.

Consider the following illustrative entries.
- compound: "CCOC(=O)C(Cc1ccc(N(CCCl)CCCl)cc1)NC(=O)CCCN1C(=O)CN=C(c2ccccc2)c2cc(Cl)ccc21 (stereo not given)"
  measured.quantity: "GI50"
  result: "6.32 µM (inactive)"
- compound: "O=C1c2ccccc2C(=O)c2oc(Br)cc21"
  measured.quantity: "GI50"
  result: "2.12 µM (inactive)"
- compound: "Fc1ccc(Oc2nc3ccccc3nc2-c2ccccc2)cc1"
  measured.quantity: "GI50"
  result: "> 100 µM (inactive)"
- compound: "COC(=O)[C@@H](NC(=O)c1ccc(CNC(=O)/C(C)=C/c2ccccc2)cc1)C(C)C"
  measured.quantity: "GI50"
  result: "> 100 µM (inactive)"

Next up:
Inquiry: What does the record list as GI50 for Cc1cc2cc3c(O)nc(O)nc3nc2cc1C ?
Reply text: > 100 µM (inactive)
